EXPERIMENTAL_TARGET: TRPML1 (Homo sapiens, UniProt Q9GZU1)
Sequence (Q9GZU1 17-572 limits assumed): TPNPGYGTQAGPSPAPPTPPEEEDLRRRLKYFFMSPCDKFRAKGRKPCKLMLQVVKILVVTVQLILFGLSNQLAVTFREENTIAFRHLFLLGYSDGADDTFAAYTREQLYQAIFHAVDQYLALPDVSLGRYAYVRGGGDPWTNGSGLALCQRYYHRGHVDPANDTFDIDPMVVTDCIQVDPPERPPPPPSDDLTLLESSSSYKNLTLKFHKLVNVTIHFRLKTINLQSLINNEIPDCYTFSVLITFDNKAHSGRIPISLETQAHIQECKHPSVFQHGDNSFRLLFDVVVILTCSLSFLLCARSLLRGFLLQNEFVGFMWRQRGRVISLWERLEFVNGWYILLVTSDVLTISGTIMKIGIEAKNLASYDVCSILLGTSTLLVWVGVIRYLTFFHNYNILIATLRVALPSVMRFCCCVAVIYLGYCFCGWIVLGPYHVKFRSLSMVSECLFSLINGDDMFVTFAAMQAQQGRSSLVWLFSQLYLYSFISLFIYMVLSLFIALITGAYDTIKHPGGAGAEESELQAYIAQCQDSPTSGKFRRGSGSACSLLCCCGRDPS
RUN_DESCRIPTION: Calcium flux in HEK293 overexpressing TRPML1 plasma membrane variant (FLIPR, Calcium 6 dye)
Type: cell-based
ASSAY_SETUP: HEK293/TRPML1-PM clone A5 cells; 4-parameter logistic fit; read-out: TRPML1 calcium flux (FLIPR) dose response: EC50
pEC50: −log10 of the molar value.
PROPERTY_NAME: pEC50

// below: answered compounds
| COMPOUND | ASSAY_RESULT |
| --- | --- |
| CC(C)CCN(C)c1ccccc1NS(=O)(=O)c1ccc(S(=O)(=O)N(C)C)cc1 [Compound 6] | 6.54 |
| CC(C)CN(C)c1c(Cl)cccc1NS(=O)(=O)c1ccc(S(=O)(=O)N(C)C)cc1 [Compound 76] | 6.28 |
| CN(c1ccccc1NS(=O)(=O)c1ccc(S(=O)(=O)N(C)C)cc1)C1CCCC1 [Compound 24] | 6.55 |

(A) CC(C)CCN(C)c1c(Cl)cccc1NS(=O)(=O)c1ccc(S(=O)(=O)N(C)C)cc1 [Compound 67]
(B) CN(CC1(F)CCCC1)c1ccccc1NS(=O)(=O)c1ccc(S(=O)(=O)N(C)C)cc1 [Compound 93]
(C) CN(Cc1cn(C)cn1)c1ccccc1NS(=O)(=O)c1ccc(S(=O)(=O)N(C)C)cc1 [Compound 59]
Rank the items in ascending order with respect to pEC50. Your task in answering is to list the labels in the requested order. C, B, A
